Hi there, I'd appreciate the recorded IC50 for every entry that follows.
- subject-of-test: VIM-1 (Pseudomonas aeruginosa, UniProt A0A0F7KYQ8)
- Construct: culture supernatant used unpurified
- test-protocol: biochemical
- condition-info: cleavage of nitrocefin (200 uM) by VIM-1 supernatant

Answer with the recorded IC50 of O=C(O)c1c(F)ccc2c1OB(O)[C@@H](Sc1cnns1)C2 [Compound 48] only.
≥ 1000 nM

Answer with the recorded IC50 of Nc1nnc(CCS[C@H]2Cc3ccc(F)c(C(=O)O)c3OB2O)s1 [Compound 50] only.
< 1000 nM

Answer with the recorded IC50 of O=C(O)c1cccc2c1OB(O)[C@@H](Sc1nnc[nH]1)C2 [Compound 2] only.
< 1000 nM

Answer with the recorded IC50 of COc1ccc2c(c1C(=O)O)OB(O)[C@@H](Sc1nnc(NC(C)=O)s1)C2 [Compound 63] only.
< 1000 nM

Answer with the recorded IC50 of Cn1ncc(C(N)=O)c1S[C@H]1Cc2ccc(F)c(C(=O)O)c2OB1O [Compound 56] only.
≥ 1000 nM

Answer with the recorded IC50 of CS(=O)(=O)Nc1ccc2c(c1C(=O)O)OB(O)[C@@H](Sc1nnc(N)s1)C2 [Compound 120] only.
< 1000 nM

Answer with the recorded IC50 of COCc1ccc2c(c1C(=O)O)OB(O)[C@@H](Sc1nnc(N)s1)C2 [Compound 35] only.
< 1000 nM

Answer with the recorded IC50 of COCCOc1ccc2c(c1C(=O)O)OB(O)[C@@H](Sc1nncs1)C2 [Compound 89] only.
< 1000 nM

Answer with the recorded IC50 of N#CCS[C@H]1Cc2ccc(F)c(C(=O)O)c2OB1O [Compound 51] only.
≥ 1000 nM

All figures here come from patent US10206937B2.
